molecular target: cGAS (Homo sapiens); test: Transcreener cGAS enzymatic assay (FP); assay type: biochemical; conditions: standard conditions: 100 μM ATP and GTP, 62.5 nM bp ISD, 60 minute reactions; read-out: IC50 FP Standard
Sequence (Q8N884 whole entry): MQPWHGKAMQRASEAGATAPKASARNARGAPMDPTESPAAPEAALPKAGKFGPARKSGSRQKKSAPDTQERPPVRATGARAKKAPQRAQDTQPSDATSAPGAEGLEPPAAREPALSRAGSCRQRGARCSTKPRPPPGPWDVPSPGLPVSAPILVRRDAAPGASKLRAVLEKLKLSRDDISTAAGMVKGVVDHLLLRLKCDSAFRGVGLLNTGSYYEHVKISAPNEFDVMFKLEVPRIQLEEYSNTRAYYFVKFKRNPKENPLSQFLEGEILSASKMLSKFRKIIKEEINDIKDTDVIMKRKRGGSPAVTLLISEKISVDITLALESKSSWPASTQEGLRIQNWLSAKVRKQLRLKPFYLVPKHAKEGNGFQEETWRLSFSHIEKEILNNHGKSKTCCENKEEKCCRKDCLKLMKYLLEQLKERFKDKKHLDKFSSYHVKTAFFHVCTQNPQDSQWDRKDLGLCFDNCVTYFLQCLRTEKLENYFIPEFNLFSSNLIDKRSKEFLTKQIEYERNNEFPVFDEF
Recorded IC50, one value per entry.

>>> result("Cc1nc(N2C[C@@H](CC(=O)Nc3cccc(Cl)c3)C[C@H]2C(=O)O)c2oc3ccccc3c2n1")
"100 to 200 nM"
>>> result("Cc1nc(N2C[C@@H](CC(=O)Nc3ccc(N4CCNCC4)cc3)C[C@H]2C(=O)O)c2oc3ccccc3c2n1")
"1000 to 10000 nM"
>>> result("COc1cc(NC(=O)C[C@H]2C[C@@H](C(=O)O)N(c3nc(C)nc4c3oc3ccccc34)C2)ccn1")
"50 to 100 nM"

Incoming: Requested field: IC50. Item: Cc1nc(N2C[C@@H](CC(=O)Nc3ccc(-c4ccc(CO)cc4)cc3)C[C@H]2C(=O)O)c2oc3ccccc3c2n1
Outgoing: < 50 nM

Incoming: Requested field: IC50. Item: Cc1nc(N2C[C@@H](CC(=O)Nc3ccc(-c4ccc(O)nc4)cc3)C[C@H]2C(=O)O)c2oc3ccccc3c2n1
Outgoing: 100 to 200 nM

Incoming: Requested field: IC50. Item: Cc1cccc(NC(=O)C[C@H]2C[C@@H](C(=O)O)N(c3nc(C)nc4c3oc3ccccc34)C2)c1
Outgoing: 200 to 1000 nM

Incoming: Requested field: IC50. Item: Cc1nc(N2C[C@@H](CC(=O)Nc3ccc(-c4ccc(N)nc4)cc3)C[C@H]2C(=O)O)c2oc3ccccc3c2n1
Outgoing: < 50 nM

---

experiment: Pharmacokinetics in C57BL/6 female mice, IV and PO; type: in vivo; details: mouse; IV 3 mg/kg, plasma, C57BL/6 female mice
measured metric: half-life (h)
Provide only the numeric value, understood in h.

Incoming: Requested field: half-life. Item: Cc1nc(N2C[C@@H](CC(=O)Nc3ccc(-c4ccccc4)cc3)C[C@H]2C(=O)O)c2oc3ccccc3c2n1
Outgoing: 2.3

---

assay: Pharmacokinetics in C57BL/6 female mice, IV and PO; type: in vivo; settings: mouse; PO 30 mg/kg, plasma, C57BL/6 female mice
measured metric: CL/F (L/h/kg)
Provide only the numeric value, understood in L/h/kg.

Incoming: Requested field: CL/F. Item: Cc1nc(N2C[C@@H](CC(=O)Nc3ccc(-c4ccccc4)cc3)C[C@H]2C(=O)O)c2oc3ccccc3c2n1 [Compound 5]
Outgoing: 2.21

---

target: cGAS (Homo sapiens); assay: Transcreener cGAS enzymatic assay (FP); type: biochemical; settings: standard conditions: 100 μM ATP and GTP, 62.5 nM bp ISD, 60 minute reactions; read-out: IC50 FP Standard
pIC50: −log10 of the molar value.
measured metric: pIC50

>>> result("Cc1nc(N2C[C@@H](CC(=O)Nc3cccc(N4CCOCC4)c3)C[C@H]2C(=O)O)c2oc3ccccc3c2n1")
"6.70 to 7.00"
>>> result("Cc1nc(N2C[C@@H](CC(=O)Nc3ccc4ccncc4c3)C[C@H]2C(=O)O)c2oc3ccccc3c2n1")
"> 7.30"
>>> result("COc1cccc(NC(=O)C[C@H]2C[C@@H](C(=O)O)N(c3nc(C)nc4c3oc3ccccc34)C2)c1")
"6.00 to 6.70"

With those in mind, consider the next compound.
Incoming: Requested field: pIC50. Item: Cc1nc(N2C[C@@H](CC(=O)Nc3cccc(N4CCC(O)CC4)c3)C[C@H]2C(=O)O)c2oc3ccccc3c2n1
Outgoing: 6.00 to 6.70

Data credit: patent US20240174684A1
